molecular target: GST-Bcl-B (Homo sapiens, UniProt Q9HD36); assay: biochemical
Sequence (Q9HD36 1-182 limits assumed): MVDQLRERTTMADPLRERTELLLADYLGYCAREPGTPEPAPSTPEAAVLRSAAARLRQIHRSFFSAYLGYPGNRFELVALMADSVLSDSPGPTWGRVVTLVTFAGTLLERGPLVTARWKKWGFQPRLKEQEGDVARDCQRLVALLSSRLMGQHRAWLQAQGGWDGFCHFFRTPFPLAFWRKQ
Exam item: assign t to entries whose IC50 is below 10 µM and f to entries at or above 10 µM. Note that a value of exactly 10 µM receives f.

> print(dat)
                                   compound  group.label
1  O=C1C=CC2=C3Oc4c(ccc5cc(O)ccc45)C(c4ccccc4C(=O)O)C3C=CC2=C1 (stereo not drawn)            t
2  Cc1ccc(C(=O)c2coc3c2C(=O)C(=O)C(Cl)=C3Cl)cc1            t
3  CN1CCN(CN2C(=O)/C(=N\NC(=O)CSc3nc4ccccc4s3)c3ccccc32)CC1            f
4  Cc1cc(I)c2c(c1)C1C=CCC1C(C(=O)O)N2 (stereo not drawn)            f
5          Cc1cc(C)nc(NC(=N)Nc2ccc(N)cc2)n1            t

(Q) A record lists O=C(O)C1Nc2c(Cl)cc(Cl)cc2C2C=CCC12 (stereo not drawn) . Is its IC50 below 10 µM?
(A) t

(Q) Criterion: IC50 strictly below 10 µM. Is it met by O=C(COc1ccc(Cl)cc1Cl)Nc1nnc(-c2ccco2)[nH]1 ?
(A) f

(Q) Hello, I'm reviewing records and need to know if IC50 of O=C(O)c1ccc2c(c1)C1C=CCC1C(c1cccc([N+](=O)[O-])c1)N2 (stereo not drawn) is below 10 µM. Could you check?
(A) t

(Q) Answer whether the compound Cc1ccc(C)n1-c1ccc(Cl)cc1C(=O)O has IC50 strictly less than 10 µM
(A) t

(Q) Is the reported IC50 for CC1=C(C#N)c2nc(N)c(C#N)c(C)c2/C1=C/c1ccc(-c2ccc(C(=O)O)c(Cl)c2)o1 strictly below 10 µM?
(A) t

(Q) hey, is IC50 for O=C(O)c1cccc2c1NC(c1ccc([N+](=O)[O-])cc1)C1CC=CC21 (stereo not drawn) lower than 10 µM or not?
(A) t

(Q) Lab log: compare recorded IC50 with 10 µM; is it strictly lower for Clc1ccc(C2C=C(c3ccccc3)Nc3ncnn32)cc1 (stereo not drawn) ?
(A) f

###

Biological target: GST-Bfl-1 (Homo sapiens)
Construct: lacking their C-terminal transmembrane domains (about the last 20 amino acids) (“ΔTM”); made in house; host or cells: XL-1 Blue E. coli, pGEX 4T-1
Sequence (Q16548 1-155 limits assumed): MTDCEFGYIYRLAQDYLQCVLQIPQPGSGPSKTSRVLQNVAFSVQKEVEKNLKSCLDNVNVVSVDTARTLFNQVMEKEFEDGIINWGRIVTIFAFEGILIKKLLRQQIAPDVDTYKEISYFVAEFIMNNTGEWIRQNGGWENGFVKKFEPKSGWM
Assay: Bfl-1/FITC-Bid BH3 competitive fluorescence polarization assay
Format: binding
Details: primary HTS hits, MLSCN library (PubChem SIDs), Table 5B
Please note: criterion met applies when % Activity is 70% or greater, and criterion not met applies otherwise.

Example cases with answers are listed next.
> print(dat)
                                   compound    group.label
1  O=C(CSc1n[nH]c(-c2ccccc2)n1)c1ccc(O)c(O)c1  criterion met
2      O=C(CCN1CCc2ccccc21)c1ccc2c(c1)OCCO2  criterion met
3                 Cc1ccc(C)n1-c1sccc1C(=O)O  criterion met
4      O=[N+]([O-])c1cc(/C=N/Nc2nccs2)ccc1O  criterion met

(Q) Determine whether this compound has % Activity no lower than 70%: COC(=O)C1=C(C)N(c2ccccc2)/C(=C/c2cccs2)C1=O
(A) criterion not met

(Q) Entry CN(C)c1ccc(NC(=O)CN2C(=O)CN=C(c3ccccc3)c3cc(Cl)ccc32)cc1 : is its % Activity no less than 70%?
(A) criterion not met

(Q) Assess whether reported % Activity for O=C(c1coc(=O)c(Br)c1)N1CCOCC1 sits at 70% or higher.
(A) criterion met

(Q) Check the entry COc1ccc2c(c1)c(=O)oc1cc(OCC(=O)NC3CCCCC3)ccc12 : does % Activity equal or exceed 70%?
(A) criterion met

(Q) Hi team, for COC(=O)CNc1c(-c2ccccn2)nc2ccc(Br)cn12 , is the recorded % Activity at or above 70%?
(A) criterion not met

###

target: GST-Bfl-1 (Homo sapiens, UniProt Q16548); construct: lacking their C-terminal transmembrane domains (about the last 20 amino acids) (“ΔTM”); made in house; host or cells: XL-1 Blue E. coli, pGEX 4T-1; test: Bfl-1/FITC-Bid BH3 competitive fluorescence polarization assay; assay type: binding; settings: primary HTS hits, MLSCN library (PubChem SIDs), Table 5B
// values below are reported % Activity
Respond numerically; units are % and should not be typed.

Observe how each entry below is paired with its result.
> print(dat)
                                   molecule  observable  reported.measurement
1  C=CCN1C(=O)/C(=C2/C(=O)N(CC(=O)O)c3ccccc32)S/C1=N\c1nccs1  % Activity                 131.8
2  Cc1ccc2c(c1)c(=O)c1c3n2CCN(C(=O)CCl)C3CC1 (centres unmarked)  % Activity                  72.4
3              CCCCCc1nnc(NC(=O)Cc2cccs2)s1  % Activity                  69.2

(Q) State its % Activity on GST-Bfl-1 (Homo sapiens, UniProt Q16548): O=C(Nc1ccc(N2CCCC2)cc1)C(c1ccccc1)c1ccccc1
(A) 64.1

(Q) I'm curious: which % Activity was measured for O=C(OCC(=O)N1CCN(C(=O)c2ccco2)CC1)c1cc(-c2ccco2)nc2ccccc12 tested on GST-Bfl-1 (Homo sapiens, UniProt Q16548)?
(A) 73.4

(Q) Hi! What's the reported % Activity for N#C/C(C(N)=O)=c1/ccc2c(c1)N1C3=C(CCCC3)CC3CCCCC31N=2 (centres unmarked) on GST-Bfl-1 (Homo sapiens, UniProt Q16548)?
(A) 74.3

(Q) So what % Activity did Cc1ccc(S(=O)(=O)NCC(=O)OCC(=O)Nc2ncc(Cl)cc2Cl)cc1 get with GST-Bfl-1 (Homo sapiens, UniProt Q16548)?
(A) 63.4

(Q) Hello, I am looking for reported % Activity with GST-Bfl-1 (Homo sapiens, UniProt Q16548) for O=C(CSc1ccc(Cl)cc1)c1ccco1 . Could you help?
(A) 75.2

(Q) Param readout = % Activity; param system = GST-Bfl-1 (Homo sapiens, UniProt Q16548); param query = Cc1cccc(OCC(=O)Nc2ccc(N3CCCC3)cc2)c1C ; response: value
(A) 76.1

###

biological target: GST-Bcl-2 (Homo sapiens); assay: Bcl-2/FITC-TR3 fluorescence polarization competition assay (PBS + Tween-20); details: Hill coefficient of Bcl-2 dose-response curve
Sequence (P10415 1-218 limits assumed): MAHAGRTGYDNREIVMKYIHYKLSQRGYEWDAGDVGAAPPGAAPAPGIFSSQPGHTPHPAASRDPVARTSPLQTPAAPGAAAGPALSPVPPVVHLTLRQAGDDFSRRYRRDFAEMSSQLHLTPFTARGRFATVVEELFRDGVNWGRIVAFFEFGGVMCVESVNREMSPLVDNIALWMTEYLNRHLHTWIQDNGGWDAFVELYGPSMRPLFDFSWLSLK
Property: Bcl-2 H Coefficient; scope: individual compounds
Reply briefly: the number, and no unit.

Consider the reported Bcl-2 H Coefficient for these compounds:
> print(dat)
                               compound  reported.measurement
1  Cc1ccc(C)n1-c1cc(C(=O)O)cc(C(=O)O)c1                0.6186
2      Cc1ccc(C)n1-c1ccc(C(=O)O)c(Cl)c1                 1.653

(Q) Item CC1=C(C#N)c2nc(N)c(C#N)c(C)c2/C1=C/c1ccc(-c2ccc(C(=O)O)c(Cl)c2)o1 has what recorded Bcl-2 H Coefficient?
(A) 3.081

(Q) Look up Bcl-2 H Coefficient for this compound: O=C(COc1ccc(Cl)cc1Cl)Nc1nnc(-c2ccco2)[nH]1
(A) 1.078

(Q) Which Bcl-2 H Coefficient reading was recorded for the compound OC1=c2ccccc2=C(O)C12N=Nc1nnc(O)n1N2 ?
(A) 1.575

(Q) So what does the record say about Bcl-2 H Coefficient for Nc1ccc(Oc2ccc(N)c(N)c2)cc1N ?
(A) 1.428

(Q) Which measured Bcl-2 H Coefficient value corresponds to O=C(O)C1Nc2c(Cl)cc(Cl)cc2C2C=CCC12 (stereo not drawn) ?
(A) 2.956

(Q) Using the record for Cc1ccc(C)n1-c1ccc(Cl)cc1C(=O)O , report its Bcl-2 H Coefficient.
(A) 1.457

(Q) Tell me the measured Bcl-2 H Coefficient of Oc1ccc(Nc2nc(-c3ccccn3)cs2)cc1 , please.
(A) 1.241

###

Property: FRatio; scope: individual molecules
biological target: GST-Bfl-1 (Homo sapiens, UniProt Q16548); construct: lacking their C-terminal transmembrane domains (about the last 20 amino acids) (“ΔTM”); made in house; host or cells: XL-1 Blue E. coli, pGEX 4T-1; assay: Bfl-1/FITC-Bid BH3 competitive fluorescence polarization assay; type: binding; settings: primary HTS hits, MLSCN library (PubChem SIDs), Table 5B

> print(dat)
                            smiles.notation  observable  reported.measurement
1  COc1ccc(-c2coc3c(CN4CCCCC4)c(O)c(CN4CCCCC4)c(O)c3c2=O)cc1      FRatio                  0.51
2                CCC1=NNc2cccc3c(OC)ccc1c23      FRatio                     1
3          c1coc(-c2nn3c(-c4ccco4)nnc3s2)c1      FRatio                  0.83
4  Cc1ccc(N2CN=c3s/c(=C\c4cccnc4)c(=O)n3C2)cc1      FRatio                  0.88
5             O=C(c1coc(=O)c(Br)c1)N1CCOCC1      FRatio                  0.55
6                 CCC(=O)Nc1cccc(NC(C)=O)c1      FRatio                  0.85
7  N#Cc1ccccc1CN1C(=O)S/C(=C/c2cccn2-c2ccc(C(=O)O)cc2)C1=O      FRatio                  0.75
8      Cc1ccc(S(=O)(=O)Cc2ccc(C(=O)O)o2)cc1      FRatio                  0.86

# input for lookup
(Q) Consider the molecule shown here: c1cc2c3c(cccc3c1)NC1(CCCCC1)N2 What is its recorded FRatio?
(A) 0.82
